For each record, write down the corresponding total protein half-life in vivo.
run.description: total protein half-life in vivo (active degradation + dilution); higher = more stable protein
test.conditions: E. coli NCM3722 delta-clpP delta-lon delta-hslV; growth: N-lim chemostat; doubling time 6 h
Quick note: unit goes after the number.

Given item MTKYALVGDVGGTNARLALCDIASGEISQAKTYSGLDYPSLEAVIRVYLEEHKVEVKDGCIAIACPITGDWVAMTNHTWAFSIAEMKKNLGFSHLEIINDFTAVSMAIPMLKKEHLIQFGGAEPVEGKPIAVYGAGTGLGVAHLVHVDKRWVSLPGEGGHVDFAPNSEEEAIILEILRAEIGHVSAERVLSGPGLVNLYRAIVKADNRLPENLKPKDITERALADSCTDCRRALSLFCVIMGRFGGNLALNLGTFGGVFIAGGIVPRFLEFFKASGFRAAFEDKGRFKEYVHDIPVYLIVHDNPGLLGSGAHLRQTLGHIL [P0A6V8] , the value recorded as its total protein half-life in vivo is 5.17 h

So, MSEYRRYYIKGGTWFFTVNLRNRRSQLLTTQYQMLRHAIIKVKRDRPFEINAWVVLPEHMHCIWTLPEGDDDFSSRWREIKKQFTHACGLKNIWQPRFWEHAIRNTKDYRHHVDYIYINPVKHGWVKQVSDWPFSTFHRDVARGLYPIDWAGDVTDFSAGERIIS ? Its total protein half-life in vivo was 5.68 h

Measured total protein half-life in vivo, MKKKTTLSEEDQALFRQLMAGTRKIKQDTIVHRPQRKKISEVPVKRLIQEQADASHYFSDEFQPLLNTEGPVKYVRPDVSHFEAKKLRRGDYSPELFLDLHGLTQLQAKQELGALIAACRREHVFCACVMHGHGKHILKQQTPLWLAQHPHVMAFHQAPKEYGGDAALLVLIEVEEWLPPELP [P0A8B2] : 3.99 h

====

run.description: total protein half-life in vivo (active degradation + dilution); higher = more stable protein
test.conditions: wild type E. coli NCM3722; growth: N-lim chemostat; doubling time 12 h
quantity.kind: total protein half-life in vivo (h)
Record the value in h, omitting the unit from your answer.

Record MNKETQPIDRETLLKEANKIIREHEDTLAGIEATGVTQRNGVLVFTGDYFLDEQGLPTAKSTAVFNMFKHLAHVLSEKYHLVD [P0AB61] , field total protein half-life in vivo: 4.72

For record MFHRLWTLIRKELQSLLREPQTRAILILPVLIQVILFPFAATLEVTNATIAIYDEDNGEHSVELTQRFARASAFTHVLLLKSPQEIRPTIDTQKALLLVRFPADFSRKLDTFQTAPLQLILDGRNSNSAQIAANYLQQIVKNYQQELLEGKPKPNNSELVVRNWYNPNLDYKWFVVPSLIAMITTIGVMIVTSLSVAREREQGTLDQLLVSPLTTWQIFIGKAVPALIVATFQATIVLAIGIWAYQIPFAGSLALFYFTMVIYGLSLVGFGLLISSLCSTQQQAFIGVFVFMMPAILLSGYVSPVENMPVWLQNLTWINPIRHFTDITKQIYLKDASLDIVWNSLWPLLVITATTGSAAYAMFRRKVM [P0AFP9] the listed total protein half-life in vivo is 12.1

Per the record, MLKRFFITGTDTSVGKTVVSRALLQALASQGKTVAGYKPVAKGSKETPEGLRNKDALVLQSVSTIELPYEAVNPIALSEEESSVAHSCPINYTLISNGLANLTEKVDHVVVEGTGGWRSLMNDLRPLSEWVVQEQLPVLMVVGIQEGCINHALLTAQAIANDGLPLIGWVANRINPGLAHYAEIIDVLGKKLPAPLIGELPYLPRAEQRELGQYIRLAMLRSVLAVDRVTV [P0A6E9] has total protein half-life in vivo of 3.5

====

run.description: total protein half-life in vivo (active degradation + dilution); higher = more stable protein
test.conditions: wild type E. coli NCM3722; growth: C-lim chemostat; doubling time 6 h
Exercise: state measured total protein half-life in vivo for each of the sequences provided.
The reply should be a number in h, with the unit left off.

// total protein half-life in vivo value for MKHDHFVVQSPDKPAQQLLLLFHGVGDNPVAMGEIGNWFAPLFPDALVVSVGGAEPSGNPAGRQWFSVQGITEDNRQARVDAIMPTFIETVRYWQKQSGVGANATALIGFSQGAIMVLESIKAEPGLASRVIAFNGRYASLPETASTATTIHLIHGGEDPVIDLAHAVAAQEALISAGGDVTLDIVEDLGHAIDNRSMQFALDHLRYTIPKHYFDEALSGGKPGDDDVIEMM : 6.03

The sequence listed as MTDMNILDLFLKASLLVKLIMLILIGFSIASWAIIIQRTRILNAAAREAEAFEDKFWSGIELSRLYQESQGKRDNLTGSEQIFYSGFKEFVRLHRANSHAPEAVVEGASRAMRISMNRELENLETHIPFLGTVGSISPYIGLFGTVWGIMHAFIALGAVKQATLQMVAPGIAEALIATAIGLFAAIPAVMAYNRLNQRVNKLELNYDNFMEEFTAILHRQAFTVSESNKG [P0ABU9] shows total protein half-life in vivo equal to 6.08

MITIRDVARQAGVSVATVSRVLNNSTLVSADTREAVMKAVSELDYRPNANAQALATQVSDTIGVVVMDVSDAFFGALVKAVDLVAQQHQKYVLIGNSYHEAEKERHAIEVLIRQRCNALIVHSKALSDDELAQFMDNIPGMVLINRVVPGYAHRCVCLDNLSGARMATRMLLNNGHQRIGYLSSSHGIEDDAMRKAGWMSALKEQDIIPPESWIGAGTPDMPGGEAAMVELLGRNLQLTAVFAYNDNMAAGALTALKDNGIAIPLHLSIIGFDDIPIARYTDPQLTTVRYPIASMAKLATELALQGAAGNIDPRASHCFMPTLVRRHSVATRQNAAAITNSTNQAM yielded total protein half-life in vivo of 4.74

Given item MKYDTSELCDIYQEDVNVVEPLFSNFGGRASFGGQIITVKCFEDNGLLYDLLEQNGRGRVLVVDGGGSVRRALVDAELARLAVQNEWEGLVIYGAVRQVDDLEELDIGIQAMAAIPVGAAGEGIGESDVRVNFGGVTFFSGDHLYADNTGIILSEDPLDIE [P0A8R0] , the value recorded as its total protein half-life in vivo is 6.31

total protein half-life in vivo for MSKSLQKPTILNVETVARSRLFTVESVDLEFSNGVRRVYERMRPTNREAVMIVPIVDDHLILIREYAVGTESYELGFSKGLIDPGESVYEAANRELKEEVGFGANDLTFLKKLSMAPSYFSSKMNIVVAQDLYPESLEGDEPEPLPQVRWPLAHMMDLLEDPDFNEARNVSALFLVREWLKGQGRV is 5.24

The sequence listed as MDQVVIFKQIFDKVRNDLNYQWFYSELKRHNVSHYIYYLATENVHIVLKNDNTVLLKGLKNIVSVKFSKDRHLIETTSNKLKSREITFQEYRRNLAKAGVFRWVTNIHEQKRYYYTFDNSLLFTESIQKTTQILPR has a reported total protein half-life in vivo of 4.33

Value of measured total protein half-life in vivo for the entry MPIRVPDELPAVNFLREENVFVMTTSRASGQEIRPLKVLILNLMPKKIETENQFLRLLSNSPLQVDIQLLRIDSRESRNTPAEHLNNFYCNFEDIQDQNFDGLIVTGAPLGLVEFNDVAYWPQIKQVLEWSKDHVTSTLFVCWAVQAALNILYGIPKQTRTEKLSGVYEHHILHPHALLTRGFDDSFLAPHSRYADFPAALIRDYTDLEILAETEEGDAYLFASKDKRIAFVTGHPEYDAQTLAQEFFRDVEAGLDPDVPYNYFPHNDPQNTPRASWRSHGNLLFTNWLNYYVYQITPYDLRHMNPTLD : 3.27

Just so you know, measured total protein half-life in vivo for MDLASLRAQQIELASSVIREDRLDKDPPDLIAGADVGFEQGGEVTRAAMVLLKYPSLELVEYKVARIATTMPYIPGFLSFREYPALLAAWEMLSQKPDLVFVDGHGISHPRRLGVASHFGLLVDVPTIGVAKKRLCGKFEPLSSEPGALAPLMDKGEQLAWVWRSKARCNPLFIATGHRVSVDSALAWVQRCMKGYRLPEPTRWADAVASERPAFVRYTANQP came out at 6.09

According to the records, this sequence MSLSRTQIVNWLTRCGDIFSTESEYLTGLDREIGDADHGLNMNRGFSKVVEKLPAIADKDIGFILKNTGMTLLSSVGGASGPLFGTFFIRAAQATQARQSLTLEELYQMFRDGADGVISRGKAEPGDKTMCDVWVPVVESLRQSSEQNLSVPVALEAASSIAESAAQSTITMQARKGRASYLGERSIGHQDPGATSVMFMMQMLALAAKE displays total protein half-life in vivo of 5.43

Noted for MGLMNAFDSQTEDSSPAIGRNLRSRPLARKKLSEMVEEELEQMIRRREFGEGEQLPSERELMAFFNVGRPSVREALAALKRKGLVQINNGERARVSRPSADTIIGELSGMAKDFLSHPGGIAHFEQLRLFFESSLVRYAAEHATDEQIDLLAKALEINSQSLDNNAAFIRSDVDFHRVLAEIPGNPIFMAIHVALLDWLIAARPTVTDQALHEHNNVSYQQHIAIVDAIRRHDPDEADRALQSHLNSVSATWHAFGQTTNKKK [P0A8W0] : its total protein half-life in vivo reads 4.17

total protein half-life in vivo recorded for this sequence, MPHNPIRVVVGPANYFSHPGSFNHLHDFFTDEQLSRAVWIYGKRAIAAAQTKLPPAFGLPGAKHILFRGHCSESDVQQLAAESGDDRSVVIGVGGGALLDTAKALARRLGLPFVAVPTIAATCAAWTPLSVWYNDAGQALHYEIFDDANFMVLVEPEIILNAPQQYLLAGIGDTLAKWYEAVVLAPQPETLPLTVRLGINNAQAIRDVLLNSSEQALSDQQNQQLTQSFCDVVDAIIAGGGMVGGLGDRFTRVAAAHAVHNGLTVLPQTEKFLHGTKVAYGILVQSALLGQDDVLAQLTGAYQRFHLPTTLAELEVDINNQAEIDKVIAHTLRPVESIHYLPVTLTPDTLRAAFKKVESFKA , is 5.28

Form field total protein half-life in vivo, entry MSALFLAIPLTIFVLFVLPIWLWLHYSNRSGRSELSQSEQQRLAQLADEAKRMRERIQALESILDAEHPNWRDR [P0AFM9] : 5.55
